src = ChEMBL document CHEMBL6083269

# Procedure Summary: Selectivity index, ratio of CC50 for MDBK to IC50 for Trypanosoma evansi Tansui
# Format: toxicity, cell-based
# Condition Parameters: cattle, MDBK cells; read-out: Ratio CC50/IC50
Quantity Kind: selectivity ratio

Quick one: selectivity ratio of C#CCn1cc(/C=N\N=C/CC)c2cc([N+](=O)[O-])ccc21 ? > 6.39

Quick one: selectivity ratio of C#CCn1cc(/C=N\N=C\c2ccc([N+](=O)[O-])o2)c2cc([N+](=O)[O-])ccc21 ? > 140

Quick one: selectivity ratio of C#CCn1cc(/C=N/N=C\C=C(C)C)c2cc([N+](=O)[O-])ccc21 ? 1.72

Quick one: selectivity ratio of C#CCn1cc(/C=N\N=C\c2ccc([N+](=O)[O-])s2)c2cc([N+](=O)[O-])ccc21 ? > 864

Quick one: selectivity ratio of C#CCn1cc(/C=N\N=C\C(C)=Cc2ccccc2)c2cc([N+](=O)[O-])ccc21 ? 0.41

Quick one: selectivity ratio of C#CCn1cc(/C=N\N=C\c2cccs2)c2cc([N+](=O)[O-])ccc21 ? > 16.1

---

# Procedure Summary: Selectivity index, ratio of IC50 for human THP-1 cells to IC50 for static antileishmanial activity against Leishmania donovani 9515 (MHOM/IN/95/9151) amastigote
# Type: toxicity, cell-based
# Condition Parameters: read-out: Ratio IC50
Answer each item with its documented selectivity ratio.
Please reply with the number alone, leaving off any unit.

Quick one: selectivity ratio of C#CCn1cc(/C=N\N=C\c2cccs2)c2cc([N+](=O)[O-])ccc21 ? 16

Quick one: selectivity ratio of C#CCn1cc(\C=N/N=C/C=C/c2ccccc2)c2cc([N+](=O)[O-])ccc21 ? 75

Quick one: selectivity ratio of C#CCn1cc(/C=N\N=C\c2ccccn2)c2cc([N+](=O)[O-])ccc21 ? 63

Quick one: selectivity ratio of C#CCn1cc(\C=N/N=C/C(C)=C\C)c2cc([N+](=O)[O-])ccc21 ? 313

Quick one: selectivity ratio of C#CCn1cc(/C=N\N=C\C2CCCCC2)c2cc([N+](=O)[O-])ccc21 ? 19

---

# Procedure Summary: Selectivity index, ratio of IC50 for african green monkey Vero cells to IC50 for leishmanicidal activity against Leishmania donovani 9515 (MHOM/IN/95/9151) amastigote
# Assay type: toxicity, cell-based
# Condition Parameters: read-out: Ratio IC50
Quantity Kind: selectivity ratio
Please reply with the number alone, leaving off any unit.

Quick one: selectivity ratio of C#CCn1cc(/C=N\N=C\c2ccc([N+](=O)[O-])s2)c2cc([N+](=O)[O-])ccc21 ? 15

Quick one: selectivity ratio of C#CCn1cc(\C=N/N=C/C=C/c2ccccc2)c2cc([N+](=O)[O-])ccc21 ? 37

Quick one: selectivity ratio of C#CCn1cc(/C=N/N=C\C=C(C)C)c2cc([N+](=O)[O-])ccc21 ? 78

Quick one: selectivity ratio of C#CCn1cc(/C=N\N=C\c2ccc([N+](=O)[O-])cc2)c2cc([N+](=O)[O-])ccc21 ? 7

Quick one: selectivity ratio of C#CCn1cc(/C=N\N=C\c2cccs2)c2cc([N+](=O)[O-])ccc21 ? 16

Quick one: selectivity ratio of C#CCn1cc(\C=N/N=C/C(C)=C\C)c2cc([N+](=O)[O-])ccc21 ? 50

Quick one: selectivity ratio of C#CCn1cc(/C=N\N=C\c2ccc([N+](=O)[O-])o2)c2cc([N+](=O)[O-])ccc21 ? 2

---

# Procedure Summary: Selectivity index, ratio of IC50 for human THP-1 cells to IC50 for Leishmania donovani 9515 (MHOM/IN/95/9151) promastigote
# Type: toxicity, cell-based
# Condition Parameters: read-out: Ratio IC50
Define the label as 1 (yes) when selectivity ratio is strictly less than 10 and as 0 (no) in all remaining cases.

Consider the compound C#CCn1cc(/C=N\N=C\C(C)=Cc2ccccc2)c2cc([N+](=O)[O-])ccc21 . Is its selectivity ratio strictly less than 10? 0 (no)

Consider the compound C#CCn1cc(/C=N/N=C\C=C(C)C)c2cc([N+](=O)[O-])ccc21 . Is its selectivity ratio strictly less than 10? 1 (yes)

Consider the compound C#CCn1cc(/C=N\N=C\c2ccc([N+](=O)[O-])o2)c2cc([N+](=O)[O-])ccc21 . Is its selectivity ratio strictly less than 10? 0 (no)

Consider the compound C#CCn1cc(/C=N\N=C\c2ccc([N+](=O)[O-])s2)c2cc([N+](=O)[O-])ccc21 . Is its selectivity ratio strictly less than 10? 0 (no)

Consider the compound C#CCn1cc(/C=N\N=C\c2cccs2)c2cc([N+](=O)[O-])ccc21 . Is its selectivity ratio strictly less than 10? 1 (yes)

---

# Tested on: Trypanosoma brucei rhodesiense
# Procedure Summary: Trypanocidal activity against Trypanosoma brucei rhodesiense IL1501 incubated for 72 hrs by CellTiter-Glo reagent based […] analysis
# Assay type: functional, organism-based
# Condition Parameters: IL1501, 72 h
pIC50: −log10 of the molar value.
Quantity Kind: pIC50

Quick one: pIC50 of C#CCn1cc(/C=N\N=C/C2CC2)c2cc([N+](=O)[O-])ccc21 ? < 4.07

Quick one: pIC50 of C#CCn1cc(/C=N\N=C\c2ccc([N+](=O)[O-])o2)c2cc([N+](=O)[O-])ccc21 ? 6.12

Quick one: pIC50 of C#CCn1cc(/C=N\N=C\c2ccc([N+](=O)[O-])s2)c2cc([N+](=O)[O-])ccc21 ? 6.46

Quick one: pIC50 of C#CCn1cc(/C=N\N=C\c2ccccn2)c2cc([N+](=O)[O-])ccc21 ? < 4.12

Quick one: pIC50 of C#CCn1cc(/C=N\N=C\c2ccncc2)c2cc([N+](=O)[O-])ccc21 ? < 4.12

Quick one: pIC50 of C#CCn1cc(\C=N/N=C/C=C/c2ccccc2)c2cc([N+](=O)[O-])ccc21 ? < 4.15

Quick one: pIC50 of C#CCn1cc(/C=N\N=C\c2ccc([N+](=O)[O-])cc2)c2cc([N+](=O)[O-])ccc21 ? < 4.18

Quick one: pIC50 of C#CCn1cc(/C=N\N=C\C2CCCCC2)c2cc([N+](=O)[O-])ccc21 ? 4.71

Quick one: pIC50 of C#CCn1cc(/C=N/N=C\C=C(C)C)c2cc([N+](=O)[O-])ccc21 ? 4.46

Quick one: pIC50 of C#CCn1ccc2cc([N+](=O)[O-])ccc21 ? < 3.90

Quick one: pIC50 of C#CCn1cc(/C=N\N=C/C)c2cc([N+](=O)[O-])ccc21 ? < 4.03

Quick one: pIC50 of C#CCn1cc(/C=N\N)c2cc([N+](=O)[O-])ccc21 ? < 3.99

Quick one: pIC50 of C#CCn1cc(/C=N\N=C/CC)c2cc([N+](=O)[O-])ccc21 ? 4.12

Quick one: pIC50 of C#CCn1cc(C=O)c2cc([N+](=O)[O-])ccc21 ? < 3.96

Quick one: pIC50 of C#CCn1cc(\C=N/N=C/C(C)=C\C)c2cc([N+](=O)[O-])ccc21 ? < 4.09

Quick one: pIC50 of C#CCn1cc(/C=N\N=C\c2nccn2C)c2cc([N+](=O)[O-])ccc21 ? < 4.12

Quick one: pIC50 of C#CCn1cc(/C=N\N=C\c2cccnc2)c2cc([N+](=O)[O-])ccc21 ? < 4.12

Quick one: pIC50 of C#CCn1cc(/C=N\N=C\c2cccs2)c2cc([N+](=O)[O-])ccc21 ? 4.79

Quick one: pIC50 of C#CCn1cc(/C=N\N=C\C(C)=Cc2ccccc2)c2cc([N+](=O)[O-])ccc21 ? 5.01

Quick one: pIC50 of C#CCn1cc(/C=N\N=C\c2cccn2C)c2cc([N+](=O)[O-])ccc21 ? < 4.13

Quick one: pIC50 of NCCCC(N)(C(=O)O)C(F)F (stereo unspecified) ? 4.34

---

# Test system: Trypanosoma congolense
# Procedure Summary: Trypanocidal activity against Trypanosoma congolense IL3000 incubated for 72 hrs by CellTiter-Glo reagent based […] analysis
# Assay type: functional, organism-based
# Condition Parameters: IL3000, 72 h
Answer each item with its documented IC50.
Write the number in µM without appending the unit.

Quick one: IC50 of C#CCn1cc(/C=N\N=C\c2ccc([N+](=O)[O-])s2)c2cc([N+](=O)[O-])ccc21 ? 0.09

Quick one: IC50 of C#CCn1cc(\C=N/N=C/C=C/c2ccccc2)c2cc([N+](=O)[O-])ccc21 ? 9.4

Quick one: IC50 of C#CCn1cc(/C=N\N=C\c2nccn2C)c2cc([N+](=O)[O-])ccc21 ? 12.8

Quick one: IC50 of C#CCn1cc(/C=N\N=C\c2cnc[nH]2)c2cc([N+](=O)[O-])ccc21 ? 14.8

---

# Procedure Summary: Selectivity index, ratio of CC50 for MDBK to IC50 for Trypanosoma equiperdum IVM-t1
# Format: toxicity, cell-based
# Condition Parameters: cattle, MDBK cells; read-out: Ratio CC50/IC50
Answer each item with its documented selectivity ratio.

Quick one: selectivity ratio of C#CCn1cc(/C=N/N=C\C=C(C)C)c2cc([N+](=O)[O-])ccc21 ? 2.53

Quick one: selectivity ratio of C#CCn1cc(/C=N\N=C\c2ccc([N+](=O)[O-])s2)c2cc([N+](=O)[O-])ccc21 ? > 780

Quick one: selectivity ratio of C#CCn1cc(/C=N\N=C/CC)c2cc([N+](=O)[O-])ccc21 ? > 6.3

Quick one: selectivity ratio of C#CCn1cc(/C=N\N=C\C2CCCCC2)c2cc([N+](=O)[O-])ccc21 ? > 13.7

Quick one: selectivity ratio of C#CCn1cc(/C=N\N=C\c2cccs2)c2cc([N+](=O)[O-])ccc21 ? > 16.2

Quick one: selectivity ratio of C#CCn1cc(/C=N\N=C\C(C)=Cc2ccccc2)c2cc([N+](=O)[O-])ccc21 ? 0.32

Quick one: selectivity ratio of C#CCn1cc(/C=N\N=C\c2ccc([N+](=O)[O-])o2)c2cc([N+](=O)[O-])ccc21 ? > 146
